Where these numbers come from: patent US10730884B2

System: DENV-3 strain H87
Assay: Tetravalent RT-qPCR assay, serotype 3
Type: cell-based, Dengue virus
Settings: Dengue virus, DENV3, Vero, 72 h, RT-qPCR serotype 3 H87, Protocol A, Vero cells, day 3; read-out: EC50
Experimental: The antiviral activity of the compounds of the invention was tested against DENV-1 strain TC974#666 (NCPV), DENV-2 strain 16681, DENV-3 strain H87 (NCPV) and DENV-4 strain H241 (NCPV) in a RT-qPCR assay. Therefore, Vero cells were infected with either DENV-1, or -2, or -3, or -4 in the presence or absence of test compounds. […] In addition, CC50 values are determined based on the Cp values acquired for the housekeeping gene β-actin. […]
For each record, write down the corresponding EC50.
Only the number, expressed in nM, is required.

Enter reported EC50 observed with DENV-3 strain H87 for COc1cc(NC(C(=O)c2c[nH]c3cc(OC(F)(F)F)c(C)cc23)c2ccc(F)cc2OC)cc(OCCO)c1 (single isomer, unassigned)
120

Try COc1cc(NC(C(=O)c2c[nH]c3ccc(C)cc23)c2ccc(F)cc2OC)cc(OCCO)c1 (single isomer, unassigned) next.
50

Would you mind doing COc1cc(NC(C(=O)c2c[nH]c3cc(OC)c(Cl)cc23)c2ccc(F)cc2OC)cc(OCCO)c1 (single isomer, unassigned) as well?
34

Query COc1cc(NC(C(=O)c2c[nH]c3c4c(ccc23)OCC4)c2ccc(F)cc2OC)cc(OCCO)c1 (single isomer, unassigned) next
150

Input COc1cc(NC(C(=O)c2c[nH]c3cc(OC)c(C)c(F)c23)c2ccc(Cl)cc2OC)cc(OCCO)c1 (single isomer, unassigned) [Compound 12B]
20

Another molecule: COc1cc(NC(C(=O)c2c[nH]c3cc(F)c(C)cc23)c2ccc(Cl)cc2OC)cc(OCCO)c1 (single isomer, unassigned)
16

Can you handle COc1cc(NC(C(=O)c2c[nH]c3c(C)cc(Cl)cc23)c2ccc(F)cc2OC)cc(OCCO)c1 (single isomer, unassigned) next?
39

Then this molecule: [2H]C(Nc1cc(OC)cc(OCCO)c1)(C(=O)c1c[nH]c2cc(F)ccc12)c1ccc(Cl)cc1OC (single isomer, unassigned) [Compound 13A-D]
36

Moving on to COc1cc(NC(C(=O)c2c[nH]c3cc(F)c(C)cc23)c2ccc(F)cc2OC)cc(OCCO)c1 (single isomer, unassigned)
22

COc1cc(NC(C(=O)c2c[nH]c3c4c(ccc23)OCC4)c2ccc(Cl)cc2OC)cc(OCCO)c1 (single isomer, unassigned) [Compound 11A] , same question.
28

Query COc1cc(NC(C(=O)c2c[nH]c3cc4c(cc23)CCO4)c2ccc(F)cc2OC)cc(OCCO)c1 (single isomer, unassigned) next
63

Now try COc1cc(NC(C(=O)c2c[nH]c3cc4c(cc23)CCO4)c2ccc(Cl)cc2OC)cc(OCCO)c1 (single isomer, unassigned) [Compound 10B] .
22

Same question, COc1cc(NC(C(=O)c2c[nH]c3ccc(S(F)(F)(F)(F)F)cc23)c2ccc(Cl)cc2OC)cc(OCCO)c1 (single isomer, unassigned) [Compound 15A] this time
4.4

Can you check COc1cc(NC(C(=O)c2c[nH]c3cc(F)ccc23)c2ccc(Cl)cc2OC)cc(OCCOP(=O)(O)O)c1 (single isomer, unassigned) [13A-P^b] next?
42
